Data provenance is patent US7056954B2.

Assignment: determine reported pEC50 for the given molecules.
Target Desc: RXR-β (Mus musculus, UniProt P28704)
Sequence (P28704 whole entry): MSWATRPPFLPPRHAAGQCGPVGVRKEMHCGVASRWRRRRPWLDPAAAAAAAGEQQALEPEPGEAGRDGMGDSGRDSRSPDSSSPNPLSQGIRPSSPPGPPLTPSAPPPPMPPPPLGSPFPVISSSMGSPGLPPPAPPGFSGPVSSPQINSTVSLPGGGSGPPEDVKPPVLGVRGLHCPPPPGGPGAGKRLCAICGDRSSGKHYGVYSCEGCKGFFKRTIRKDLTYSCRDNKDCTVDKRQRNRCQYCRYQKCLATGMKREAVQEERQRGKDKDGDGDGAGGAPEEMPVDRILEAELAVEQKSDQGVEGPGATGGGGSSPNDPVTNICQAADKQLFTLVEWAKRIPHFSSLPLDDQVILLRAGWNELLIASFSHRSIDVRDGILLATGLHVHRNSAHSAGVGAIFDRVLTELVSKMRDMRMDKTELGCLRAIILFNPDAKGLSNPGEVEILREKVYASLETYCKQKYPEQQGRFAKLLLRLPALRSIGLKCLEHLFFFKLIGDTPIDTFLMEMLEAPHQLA
Experimental Protocol: Cotransfection assay in CV-1 cells, RXR-beta
Experimental Conditions: Table 4; read-out: Potency
Give bare numbers, as −log10 of the molar value.

Molecule | Target Desc | pEC50
CC1=C(/C=C/C(C)=C\C=C\C(C)=C\C(=O)O)C(C)(C)CCC1O (stereo not drawn) [4-hydroxy-9-cis-retinoic acid] | RXR-β (Mus musculus, UniProt P28704) | 6.19
CC1=C(/C=C/C(C)=C\C=C\C(C)=C\C(=O)O)C(C)(C)CCC1=O [4-keto-9-cis-retinoic acid] | RXR-β (Mus musculus, UniProt P28704) | 5.89

Let us examine a further case.
Input line: Look up and report measured pEC50 for this entry: CC1=C(/C=C/C(=C\C=C\C(C)=C\C(=O)O)c2ccccc2)C(C)(C)CCC1 [9-phenyl-9-cis-retinoic acid]
Output line: 7.36

====

Target Desc: RAR-γ (Homo sapiens, UniProt P13631)
Construct: expressed in transfected cells; host or cells: CV-1 (monkey kidney)
Sequence (P13631 whole entry): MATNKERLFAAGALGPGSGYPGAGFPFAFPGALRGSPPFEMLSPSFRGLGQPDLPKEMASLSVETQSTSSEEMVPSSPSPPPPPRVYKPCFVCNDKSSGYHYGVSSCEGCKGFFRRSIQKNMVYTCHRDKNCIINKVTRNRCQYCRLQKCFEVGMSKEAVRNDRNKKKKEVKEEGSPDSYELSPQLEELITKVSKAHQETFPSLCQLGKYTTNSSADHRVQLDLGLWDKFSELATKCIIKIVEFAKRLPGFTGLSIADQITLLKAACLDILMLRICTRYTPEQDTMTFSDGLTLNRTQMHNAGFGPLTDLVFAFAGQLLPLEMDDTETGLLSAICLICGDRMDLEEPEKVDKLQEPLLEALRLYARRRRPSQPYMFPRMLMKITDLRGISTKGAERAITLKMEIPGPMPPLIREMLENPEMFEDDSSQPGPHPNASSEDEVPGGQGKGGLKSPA
Experimental Protocol: Cotransfection assay in CV-1 cells, RAR-gamma
Assay type: cell-based
Experimental Conditions: Table 4; read-out: Potency
Readout: EC50
A complete answer gives the number and then names the unit.

Input line: Look up and report measured EC50 for this entry: CC1=C(/C=C/C(=C\C=C\C(C)=C\C(=O)O)c2ccccc2)C(C)(C)CCC1 [9-phenyl-9-cis-retinoic acid]
Output line: 0.25 µM
